Molecular target: hBPGM (Homo sapiens, UniProt P07738)
Sequence (P07738 whole entry): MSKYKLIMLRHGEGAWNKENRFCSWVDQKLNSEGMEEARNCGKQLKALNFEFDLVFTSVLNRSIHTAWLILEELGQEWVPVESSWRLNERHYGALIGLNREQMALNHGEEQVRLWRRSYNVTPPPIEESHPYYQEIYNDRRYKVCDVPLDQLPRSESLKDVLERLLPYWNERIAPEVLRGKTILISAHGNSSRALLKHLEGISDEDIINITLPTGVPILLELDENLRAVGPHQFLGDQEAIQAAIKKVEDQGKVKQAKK
Assay: BPGM synthase assay
Format: biochemical
Conditions: Table 6; read-out: huBPGM: synthase Enzyme IC50
A collection of compounds and their measured IC50
Report only the number, with the unit nM understood.

Compound | Quantity Unit | Numeric Result
CNCc1nc(C)c(-c2cccc(-c3cc(F)c4nn[nH]c4c3F)n2)s1 | nM | 1400

Q: Could you please provide reported IC50 for Cc1nc(COC(=O)N2CCC(N)C2)sc1-c1cccc(-c2cc(F)c(O)c(F)c2F)n1 (centres unmarked) ? Thanks!
Ans: 5700

Q: Could you please provide reported IC50 for Cc1nc(COc2ncccn2)sc1-c1cccc(-c2cc(O)c(C#N)c(F)c2)n1 ? Thanks!
Ans: 290

Q: Could you please provide reported IC50 for Cc1nc(COC(=O)N(C)C)sc1-c1csc(-c2cc(F)c(O)c(F)c2F)n1 ? Thanks!
Ans: 230
